Experiment: Dissolving power of UV photoprotective filters in phenoxyalkyl esters
Type: physicochemical
Conditions: maximum dissolvable amount of UV filter Benzophenone-3 (BP-3) in the substance, percent by weight, 22° C.
Excerpt: To test the dissolving power of crystalline UV photoprotective filters in phenoxyalkyl esters, four representative UV-A and/or UV-B photoprotective filters were selected by way of representation. […] If the maximum concentration had been roughly determined in this way, to finely determine the concentration range around this maximum concentration the procedure was repeated using smaller initial weight amounts of the […] photoprotective filter. […]
readoutKind: Dissolving power for Benzophenone-3 (%)

# annotated cases, reported Dissolving power for Benzophenone-3 shown
CCCCC(CC)C(=O)OC(C)COc1ccccc1 (stereo not shown) [1-Phenoxy-2-propyl 2-ethylhexanoate] ... 21
CCCCCC(CCC)C(=O)OCCOc1ccccc1 (stereo not shown) [2-Phenoxyethyl 2-propylheptanoate] ... 20
CCCCCCCC(=O)OCCOc1ccccc1 [2-Phenoxyethyl caprylate, 2-phenoxyethyloctanoic acid ester] ... 28
CCCCC(CC)C(=O)OCCOc1ccccc1 (stereo not shown) [2-Phenoxyethyl 2-ethylhexanoate] ... 25
CCCCCC(=O)OCCOc1ccccc1 [2-Phenoxyethyl caproate] ... 28

A. CCCCCCC(CCCC)C(=O)OCCOc1ccccc1 (stereo not shown) [2-Phenoxyethyl 2-butyloctanoate]
B. O=C(OCCOc1ccccc1)C1CCCCC1 [2-Phenoxyethyl cyclohexanoate]
[Q] Compare Dissolving power for Benzophenone-3: is it lower for A or for B ? Field: selected label. Fill in the label of the entry you choose.
[A] A
(A: 19%, B: 30%)
